Values from patent US4740233A

# System: barnyardgrass
# assaySummary: Preemergent control of plant species
# Assay type: in vivo, Echinochloa crusgalli
# testConditions: Echinochloa crus-galli, pre-emergence, 336 h; 0.25 lb/acre; read-out: percent preemergent control
quantityName: pest or weed control at 280.212 g/ha (%)
Numbers only, in %.

Use the examples below as a reference point.
Cc1cc(C)n2nc(S(=O)(=O)Nc3ccccc3[N+](=O)[O-])nc2n1 40
Cc1ccnc2nc(S(=O)(=O)Nc3c(F)cccc3F)nn12 20
CC(=O)OCc1cccc(Cl)c1NS(=O)(=O)c1nc2nc(C)cc(C)n2n1 0
O=S(=O)(Nc1c(Cl)cccc1Cl)c1nc2ncccn2n1 20
Cc1ccn2nc(S(=O)(=O)N(C(=O)C=Cc3ccccc3)c3c(F)cccc3F)nc2n1 100
Cc1ccc(Cl)c(NS(=O)(=O)c2nc3ncccn3n2)c1Cl 80
Cc1ccn2nc(S(=O)(=O)N(C(=O)c3ccccc3)c3c(Cl)cccc3Cl)nc2n1 80
Cc1ccn2nc(S(=O)(=O)N(C(=O)C3CC3)c3c(F)cccc3F)nc2n1 100

Ask: Requested read-out: pest or weed control at 280.212 g/ha. Entry: Cc1cc(C(F)(F)F)n2nc(S(=O)(=O)Nc3c(Cl)ccc(C)c3Cl)nc2n1
Reply: 0
